Test: recombinant barcode read abundance after kanamycin selection (control-corrected) (log10(CPM+1)); higher = more efficient recombination; sequences stand for … in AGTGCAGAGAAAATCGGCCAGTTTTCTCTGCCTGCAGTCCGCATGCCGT…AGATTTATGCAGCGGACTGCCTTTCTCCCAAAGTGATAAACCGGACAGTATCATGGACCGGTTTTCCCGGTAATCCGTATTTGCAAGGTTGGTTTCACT; site = the 11-nt target;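 also: IS621 recombinase and bridge RNA in Escherichia coli cells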
observed property: recombinant barcode read abundance (log10)

# sequence code, recorded result
rows = [
    ("TCGAGTGCTTGGGTTCTAACCTGTTGCCT (site TCGAGTTCTAG)", 0),
    ("GACACGCCTTGGGTTCTAACCTGTTGCGT (site GACACGCCTAT)", 0.147),
    ("TGCTGTCCTTGGGTTCTAACCTGTTGCCT (site TGCTGTTCTAG)", 0.0325),
    ("CTATAGACTTGGGTTCTAACCTGTTGCCT (site CTATGGACTAG)", 0.475),
    ("TAGCTAGCTTGGGTTCTAACCTGTTGCGT (site TAGCTAGCTAC)", 1.62),
    ("CCACTGTCTTGGGTTCTAACCTGTTGCCT (site CCACAGTCTAG)", 0.806),
    ("TTGGTCACTTGGGTTCTAACCTGTTGCCA (site TTGGTCACTTG)", 0.525),
    ("GGACGTCCTTGGGTTCTAACCTGTTGCCT (site GGACGCCCTAG)", 0.369),
    ("TAGACTACTTGGGTTCTAACCTGTTGCTT (site TAGACTACTTA)", 0.137),
    ("TGTCCCTCTTGGGTTCTAACCTGTTGCCT (site TGTCCCTCTAG)", 0.769),
    ("TAAAACCCTTGGGTTCTAACCTGTTGCAT (site TAAAACCCTAT)", 0.713),
    ("GCCTGGGCTTGGGTTCTAACCTGTTGCCG (site GCCCGGGCTCG)", 0.516),
    ("CGTGCGACTTGGGTTCTAACCTGTTGCAT (site CGTCCGACTAT)", 0.0641),
    ("GTCTGATCTTGGGTTCTAACCTGTTGCCT (site GTCTTATCTAG)", 0.186),
    ("TATGTAGCTTGGGTTCTAACCTGTTGCCG (site TATGTAGCTTG)", 0.0858),
    ("TAGCACCCTTGGGTTCTAACCTGTTGCCC (site TAGCACCCTCG)", 0.642),
    ("GGGTACACTTGGGTTCTAACCTGTTGCTA (site AGGTAGACTTA)", 0.0922),
    ("AGTCATACTTGGGTTCTAACCTGTTGCCA (site GACGTGTCTAC)", 0.0524),
    ("CACCACTCTTGGGTTCTAACCTGTTGCCT (site GACCACTCTAG)", 0.108),
    ("CCGCAGACTTGGGTTCTAACCTGTTGCTT (site CCGCAGACTAA)", 1.33),
    ("ACTAGTCCTTGGGTTCTAACCTGTTGCTT (site ACTAGTCCTAA)", 0.294),
    ("TTCTGGGCTTGGGTTCTAACCTGTTGCCT (site TTCTGTGCTAG)", 0.137),
    ("CATCATTCTTGGGTTCTAACCTGTTGCCT (site CATAATTCTAG)", 0.144),
    ("GAGGTAACTTGGGTTCTAACCTGTTGCCT (site GAGGTAACTAG)", 0.0487),
    ("GACTCTCCTTGGGTTCTAACCTGTTGCTT (site GACTCTCCTAC)", 0.0892),
    ("GCTTGGACTTGGGTTCTAACCTGTTGCAG (site GCTTGGACTCT)", 1.72),
    ("GTAATAGCTTGGGTTCTAACCTGTTGCAT (site ATAATAGCTAT)", 0.695),
    ("ATGCCAACTTGGGTTCTAACCTGTTGCCT (site ATGCCAACTAG)", 0.327),
    ("GCGACTCCTTGGGTTCTAACCTGTTGCTT (site GCGACTCCTAA)", 0.0299),
    ("CGATGACCTTGGGTTCTAACCTGTTGCAT (site CGATGACCTAT)", 1.48),
    ("GGATCCACTTGGGTTCTAACCTGTTGCCA (site GGATTCACTTG)", 0.0388),
    ("AGGATATCTTGGGTTCTAACCTGTTGCCT (site ATGATATCTAG)", 0.261),
    ("ATTAAATCTTGGGTTCTAACCTGTTGCCT (site ATTAAATCTAG)", 0.0334),
    ("CTGATTACTTGGGTTCTAACCTGTTGCCT (site CTGATGACTAG)", 0.0346),
    ("GTGTACCCTTGGGTTCTAACCTGTTGCCT (site GGGTACCCTAG)", 0.068),
    ("CACGCCTCTTGGGTTCTAACCTGTTGCCT (site TACGCCTCTAG)", 0.0712),
    ("TCCACAACTTGGGTTCTAACCTGTTGCCT (site TCCACATCTAG)", 0.193),
    ("TACATCCCTTGGGTTCTAACCTGTTGCCA (site TACATCCCTTG)", 0.358),
    ("GAGCCGGCTTGGGTTCTAACCTGTTGCTT (site GAGCCGGCTAA)", 1.32),
    ("TGAAACGCTTGGGTTCTAACCTGTTGCTT (site TGAAACGCTAA)", 1.2),
]
